# System: HEK-293T
# assay text: Incucyte cell viability with HEK293T; further: unitless GR value; below 1 slowed growth and below 0 cell loss
# Assay type: toxicity, cell-based
# condition summary: human, 24 h, 10 µM, compound concentration 10 uM, replicate number 2, timepoint 24 hours
Where a SMILES comes first, the peptide text is derived from it. [ ]: non-standard residue; d: D form. Arg(Me) = CNC(=N)NCCC[C@H](N)C(=O)O; d3Pal = N[C@H](Cc1cccnc1)C(=O)O; azaGly = NNC(=O)O
outcome measure: Growth Rate

Please review the following examples before continuing.
COC(=O)[C@H](CCCNC(=N)N)NC(=O)CCCc1c(-c2ccccc2)[nH]c2c(F)cc(F)cc12.O=C(O)C(F)(F)F | 0.53
CN(c1ncccc1CNc1ccnc(-c2nc3c(F)c(Cl)ccc3[nH]2)n1)S(C)(=O)=O | 0.81
C[C@@H]1CN(Cc2ccc(F)cc2)CCN1C(=O)COc1ccc(Cl)cc1NC(N)=O [BX 471 FREE BASE] | 0.33
CCS(=O)(=O)Nc1ccc(Oc2ccc(F)cc2F)c(-c2cn(C)c(=O)c3[nH]ccc23)c1 [MIVEBRESIB] | 0.28
CN(C)CCCc1cc(C(=O)Nc2ccc(-c3ccncc3)cc2)ccc1O.Cl.Cl | 0.98
CCC(=O)OCC(=O)[C@@]1(OC(=O)CC)[C@@H](C)C[C@H]2[C@@H]3CCC4=CC(=O)C=C[C@]4(C)[C@@]3(Cl)[C@@H](O)C[C@@]21C [BECLOMETHASONE DIPROPIONATE] | 0.83
COc1cc(Nc2ncc3c(n2)-c2ccc(Cl)cc2C(c2c(F)cccc2OC)=NC3)ccc1C(=O)O [ALISERTIB] | 0.26
CNC(=N)NCCC[C@H](NC(=O)[C@H](CC(C)C)NC(=O)NNC(=O)[C@H](Cc1ccccc1)NC(=O)[C@H](CO)NC(=O)[C@H](CC(N)=O)NC(=O)[C@@H](Cc1cccnc1)NC(=O)[C@H](N)Cc1ccc(O)cc1)C(=O)NCC(N)=O [KISS1-543] (H-[dY][d3Pal]NSF[azaGly]L[Arg(Me)]G-NH2) | 0.84

Q: Request the reported Growth Rate associated with CN(C(=O)/C=C/c1ccoc1)[C@@H]1CC[C@@]2(O)[C@H]3Cc4ccc(O)c5c4[C@@]2(CCN3CC2CC2)[C@H]1O5 [NALFURAFINE]
Ans: 0.91

Q: Request the reported Growth Rate associated with Br.Oc1cc2c(cc1O)C(c1ccccc1)CNCC2 (stereo not drawn)
Ans: 0.67

Q: Request the reported Growth Rate associated with O=C([O-])[C@H]1O[C@H](OP(=O)([O-])OP(=O)([O-])OC[C@H]2O[C@@H](n3ccc(=O)[nH]c3=O)[C@H](O)[C@@H]2O)[C@H](O)[C@@H](O)[C@@H]1O.[Na+].[Na+].[Na+]
Ans: 0.91

Q: Request the reported Growth Rate associated with CCOC(=O)N[C@@H]1CC[C@@H]2[C@@H](C1)C[C@H]1C(=O)O[C@H](C)[C@H]1[C@H]2/C=C/c1ccc(-c2cccc(F)c2)cn1 [VORAPAXAR]
Ans: 0.95

Q: Request the reported Growth Rate associated with CCCN1CCO[C@H]2c3cc(O)ccc3OC[C@@H]21.Cl
Ans: 0.96

====

# Test system: HEK-293T
# assay text: Incucyte cell viability with HEK293T; further: unitless GR value; below 1 slowed growth and below 0 cell loss
# Format: toxicity, cell-based
# condition summary: human, 12 h, 10 µM, compound concentration 10 uM, replicate number 2, timepoint 12 hours
outcome measure: Growth Rate
Give the figure only, with no unit attached.

Please review the following examples before continuing.
CCC(=O)OCC(=O)[C@@]1(OC(=O)CC)[C@@H](C)C[C@H]2[C@@H]3CCC4=CC(=O)C=C[C@]4(C)[C@@]3(Cl)[C@@H](O)C[C@@]21C [BECLOMETHASONE DIPROPIONATE] | 0.8
COc1cc2nc(N3CCN(C(=O)C4CCCO4)CC3)nc(N)c2cc1OC.Cl.O.O (stereo not drawn) [TERAZOSIN HYDROCHLORIDE] | 0.83
C[C@@H]1CN(Cc2ccc(F)cc2)CCN1C(=O)COc1ccc(Cl)cc1NC(N)=O [BX 471 FREE BASE] | 0.27

Q: Request the reported Growth Rate associated with Br.Br.N=C(N)NCCSC(=N)N
Ans: 0.86

Q: Request the reported Growth Rate associated with CN(C(=O)c1ccccc1)c1cc(N(C)c2ccc3c(c2)CCc2ccc(C(=O)NCCN4CCOCC4)cc2C3=O)ccc1F [FM-743]
Ans: -0.27

====

# Test system: Fibroblast
# assay text: Incucyte cell viability with human fibroblast; further: unitless GR value; below 1 slowed growth and below 0 cell loss
# Type: toxicity, cell-based
# condition summary: 18 h, 10 µM, compound concentration 10 uM, replicate number 2, timepoint 18 hours
outcome measure: Growth Rate
Give the figure only, with no unit attached.

Please review the following examples before continuing.
O=C(O)C(F)(F)F.O=C1NC(=O)/C(=C/c2c[nH]c(=O)c(-c3ccc(N4CCNCC4)nc3)c2)S1 | 0.64
CCc1nn2c(C)cc(C)nc2c1Cc1ccc(-c2nnc(C3CCNCC3)o2)cc1 | 0.56
Cc1ccccc1C(=O)Nc1ccc(C(=O)N2CCCC(N(C)C)c3ccccc32)cc1.Cl (stereo not drawn) | -0.1

Q: Request the reported Growth Rate associated with CC(C)n1cc(-c2ccc(N3CCN(C)CC3)c(NC(=O)c3ccc(-c4ccncc4)o3)c2)cn1
Ans: 0.81

Q: Request the reported Growth Rate associated with NC(=O)c1cccc(-c2cc(Nc3ccc(OC(F)(F)F)cc3)ncn2)c1
Ans: 0.53

Q: Request the reported Growth Rate associated with Cc1nc2ccc(Oc3ccc(F)cc3)cc2c(=O)n1C[C@H]1CCCN(C(C)C)C1.Cl
Ans: -0.21

Q: Request the reported Growth Rate associated with Cc1[nH]cnc1CN1CCc2c(c3ccccc3n2C)C1=O
Ans: 1

Q: Request the reported Growth Rate associated with O=c1ccc2ccc(OCCCCN3CCN(c4cccc5sccc45)CC3)cc2[nH]1
Ans: 0.81

Q: Request the reported Growth Rate associated with CC(C)CCC[C@@H](C)[C@H]1CC[C@H]2[C@@H]3[C@H](O)C=C4C[C@@H](O)CC[C@]4(C)[C@H]3CC[C@]12C
Ans: 0.84

Q: Request the reported Growth Rate associated with CC(C)(C)c1ccc(-c2coc3ccc(-c4cn[nH]c4)nc23)cc1
Ans: 0.05

Q: Request the reported Growth Rate associated with COc1ccc(NC(=O)c2ccc(-c3ccc(-c4noc(C)n4)cc3C)cc2)cc1OCCN(C)C.Cl
Ans: -0.48

Q: Request the reported Growth Rate associated with COc1ccc2cc(S(=O)(=O)N[C@H](CC(=O)N[C@H](Cc3ccc(CN4[C@H](C)CCC[C@@H]4C)cc3)C(=O)N(C)C(C)C)c3ccc4c(c3)OCO4)ccc2c1.Cl
Ans: -0.15

Q: Request the reported Growth Rate associated with CC(C)CC(=O)Nc1cncc(-c2ccc3[nH]nc(-c4nc5c(-c6cccc(F)c6)cncc5[nH]4)c3c2)c1
Ans: 0.01

Q: Request the reported Growth Rate associated with CC(C)Oc1ccc(Cc2ccc(NC3=NCCN3)cc2)cc1
Ans: 0.64

====

# Tested on: Fibroblast
# assay text: Incucyte cell viability with human fibroblast; further: unitless GR value; below 1 slowed growth and below 0 cell loss
# Format: toxicity, cell-based
# condition summary: 0 h, 10 µM, compound concentration 10 uM, replicate number 2, timepoint 0 hours
# binarize Growth Rate: threshold 0.3 inclusive, high side 1.0, low side 0.0

Some solved entries appear below for comparison.
O=C(NCCNCC(O)COc1ccc(O)cc1)N1CCOCC1.O=C(NCCNCC(O)COc1ccc(O)cc1)N1CCOCC1.O=C(O)/C=C/C(=O)O (stereo not drawn) [XAMOTEROL FUMARATE] | 0.0
O=c1nc2[nH]c3ccccc3nc-2c(=O)[nH]1 | 1.0
CCC(C)n1ncn(-c2ccc(N3CCN(c4ccc(OC[C@@H]5CO[C@@](Cn6cncn6)(c6ccc(Cl)cc6Cl)O5)cc4)CC3)cc2)c1=O.CCC(C)n1ncn(-c2ccc(N3CCN(c4ccc(OC[C@H]5CO[C@](Cn6cncn6)(c6ccc(Cl)cc6Cl)O5)cc4)CC3)cc2)c1=O (stereo partly drawn) | 0.0
CCCCCCCCCCCCCCC[C@@H](O)[C@@H](N)COP(=O)(O)O | 0.0
CC(C)Oc1ccc(F)c(-c2cnc(N)c(C(=O)Nc3cnccc3N3CCC[C@@H](C(=O)O)C3)n2)c1 | 0.0
COc1ccc2[nH]cc(CCNC(C)=O)c2c1 | 0.0

Q: Decide: is the reported value of Growth Rate for CN(C(=O)/C=C/c1ccoc1)[C@@H]1CC[C@@]2(O)[C@H]3Cc4ccc(O)c5c4[C@@]2(CCN3CC2CC2)[C@H]1O5 equal to or greater than 0.3?
Ans: 1.0

Q: Decide: is the reported value of Growth Rate for CCCCNNC(=O)c1ccc(Br)cc1 equal to or greater than 0.3?
Ans: 0.0

====

# System: U2OS
# assay text: Incucyte cell viability with U2OS; further: unitless GR value; below 1 slowed growth and below 0 cell loss
# Type: toxicity, cell-based
# condition summary: human, 12 h, 10 µM, compound concentration 10 uM, replicate number 2, timepoint 12 hours
Each item that follows carries a reported Growth Rate.
Give the figure only, with no unit attached.

Cl.NCCc1c[nH]c2ccc(O)cc12 [SEROTONIN HYDROCHLORIDE] | 0.97
COc1ccc2cc(S(=O)(=O)N[C@H](CC(=O)N[C@H](Cc3ccc(CN4[C@H](C)CCC[C@@H]4C)cc3)C(=O)N(C)C(C)C)c3ccc4c(c3)OCO4)ccc2c1.Cl | 0.61
CN1CCN(c2ccc(Nc3c4ccccc4nc4ccccc34)cc2)CC1.Cl.Cl.O | -0.02

Q: Request the reported Growth Rate associated with CCC(=O)NC[C@@H]1C[C@H]1c1cccc2c1CCO2
Ans: 0.81

Q: Request the reported Growth Rate associated with CCCCCC(O)/C=C/[C@H]1C(=O)CC(O)C1C/C=C\CCCC(=O)O (stereo partly drawn)
Ans: 0.84

Q: Request the reported Growth Rate associated with COc1cc2nc(N3CCN(C(=O)c4ccco4)CC3)nc(N)c2cc1OC.Cl [PRAZOSIN HYDROCHLORIDE]
Ans: 0.91

Q: Request the reported Growth Rate associated with O=S(=O)(c1ccccc1)N(CC(F)(F)F)c1ccc(C(O)(C(F)(F)F)C(F)(F)F)cc1
Ans: 0.83

Q: Request the reported Growth Rate associated with O=C1c2c(Br)c(Br)c(Br)c(Br)c2C(=O)N1c1ncc[nH]1
Ans: 0.89
